FYI, the data here is from ChEMBL document CHEMBL1255297.

Please respond with reported MIC for every item in the list.
system: Saccharomyces cerevisiae; test: Antimicrobial activity against Saccharomyces cerevisiae containing disruption in RTG2 gene by broth microdilution method; format: functional
Answers are plain numbers, in µg/mL.

INSERT INTO measurements (molecule, measured_property, value_observed) VALUES
  ('C[C@@H]1C[C@@H]([C@H](O)CC2CC(=O)NC(=O)C2)C(=O)[C@@H](C)C1 [CYCLOHEXIMIDE]', 'MIC', 0.025);

The molecule listed as C[C@@H]1[C@H](O)[C@@H](C)/C=C/C=C/C=C/C=C/C=C/C=C/C=C/[C@H](O[C@@H]2O[C@H](C)[C@@H](O)[C@H](N)[C@@H]2O)C[C@@H]2O[C@](O)(C[C@@H](O)C[C@@H](O)[C@H](O)CC[C@@H](O)C[C@@H](O)CC(=O)O[C@H]1C)C[C@H](O)[C@H]2C(=O)O shows MIC equal to 0.5

---

tested on: Saccharomyces cerevisiae; experiment: Antimicrobial activity against Saccharomyces cerevisiae containing disruption in RAD18 gene by broth microdilution method; format: functional
Please respond with reported MIC for every item in the list.
Numbers only, in µg/mL.

INSERT INTO measurements (molecule, measured_property, measurement_unit, value_observed) VALUES
  ('CC[C@H](C)C[C@H](C)CCCCCCCCC(=O)N[C@H]1C[C@@H](O)[C@@H](NCCN)NC(=O)[C@@H]2[C@@H](O)CCN2C(=O)[C@H]([C@H](O)CCN)NC(=O)[C@H]([C@H](O)[C@@H](O)c2ccc(O)cc2)NC(=O)[C@@H]2C[C@@H](O)CN2C(=O)[C@H]([C@@H](C)O)NC1=O [CASPOFUNGIN]', 'MIC', 'µg/mL', 0.007),
  ('CN1C(=O)[C@]23CC4=CC=C[C@H](O)[C@H]4N2C(=O)[C@@]1(CO)SS3 [GLIOTOXIN]', 'MIC', 'µg/mL', 8),
  ('OC(Cn1cncn1)(Cn1cncn1)c1ccc(F)cc1F [FLUCONAZOLE]', 'MIC', 'µg/mL', 16),
  ('C[C@@H]1C[C@@H]([C@H](O)CC2CC(=O)NC(=O)C2)C(=O)[C@@H](C)C1 [CYCLOHEXIMIDE]', 'MIC', 'µg/mL', 0.025);

Turning now to a further molecule:
The molecule listed as C[C@@H]1[C@H](O)[C@@H](C)/C=C/C=C/C=C/C=C/C=C/C=C/C=C/[C@H](O[C@@H]2O[C@H](C)[C@@H](O)[C@H](N)[C@@H]2O)C[C@@H]2O[C@](O)(C[C@@H](O)C[C@@H](O)[C@H](O)CC[C@@H](O)C[C@@H](O)CC(=O)O[C@H]1C)C[C@H](O)[C@H]2C(=O)O [AMPHOTERICIN B] shows MIC equal to 0.5

---

test system: Saccharomyces cerevisiae; test: Antimicrobial activity against Saccharomyces cerevisiae containing disruption in RTG2 gene by broth microdilution method; format: functional
measured property: MIC (µg/mL)
One number for each entry, in µg/mL.

Past entries and their recorded results:
INSERT INTO measurements (structure, measured_property, value_observed) VALUES
  ('OC(Cn1cncn1)(Cn1cncn1)c1ccc(F)cc1F', 'MIC', 16),
  ('CC[C@H](C)C[C@H](C)CCCCCCCCC(=O)N[C@H]1C[C@@H](O)[C@@H](NCCN)NC(=O)[C@@H]2[C@@H](O)CCN2C(=O)[C@H]([C@H](O)CCN)NC(=O)[C@H]([C@H](O)[C@@H](O)c2ccc(O)cc2)NC(=O)[C@@H]2C[C@@H](O)CN2C(=O)[C@H]([C@@H](C)O)NC1=O', 'MIC', 0.007);

Record for CN1C(=O)[C@]23CC4=CC=C[C@H](O)[C@H]4N2C(=O)[C@@]1(CO)SS3 under target or system Saccharomyces cerevisiae: MIC reported as 8
